# Test system: HCT-116
# procedure-summary: Survival of human HCT116 cells after 48 hrs by MTS reduction assay
# Assay type: functional, cell-based
# condition: hct-116
Consider the following compounds; for each one, report its pIC50.
Note: pIC50 values are expressed as the negative base-10 logarithm of concentration in M.

// field: pIC50; key: Oc1[nH]c2c(Br)cccc2c1C1=Nc2ccccc2/C1=N\OCCN1CCNCC1 ; value = 5.27

Noted for Cl.Cn1c(O)c(C2=Nc3ccccc3/C2=N\OCCN2CCCC2)c2cccc(Br)c21 : its pIC50 reads 5.29

Memo: Cn1c(O)c(C2=Nc3ccccc3/C2=N\OCCN2CCCC2)c2cccc(Br)c21 , reported pIC50: 4.87

// sample CN(C)CCO/N=C1/C(c2c(O)[nH]c3c(Br)cccc23)=Nc2ccccc21 , its pIC50 was 5.19

Data point: CN(C)CCO/N=C1/C(c2c(O)[nH]c3c(Br)cccc23)=Nc2ccccc21.Cl ; pIC50 = 5.70

====

# target: Cyclin-dependent kinase 5/CDK5 activator 1 (Homo sapiens, UniProt Q00535)
# Sequence (Q00535 whole entry): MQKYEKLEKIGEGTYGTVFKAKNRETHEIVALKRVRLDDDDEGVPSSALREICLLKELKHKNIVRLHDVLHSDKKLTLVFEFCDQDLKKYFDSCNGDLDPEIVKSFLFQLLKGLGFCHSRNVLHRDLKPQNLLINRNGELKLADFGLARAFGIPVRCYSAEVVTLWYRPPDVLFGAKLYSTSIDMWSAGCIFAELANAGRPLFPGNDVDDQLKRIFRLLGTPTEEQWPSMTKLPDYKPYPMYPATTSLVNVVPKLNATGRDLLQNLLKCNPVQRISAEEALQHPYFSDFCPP
# Sequence (Q15078 whole entry, further chain): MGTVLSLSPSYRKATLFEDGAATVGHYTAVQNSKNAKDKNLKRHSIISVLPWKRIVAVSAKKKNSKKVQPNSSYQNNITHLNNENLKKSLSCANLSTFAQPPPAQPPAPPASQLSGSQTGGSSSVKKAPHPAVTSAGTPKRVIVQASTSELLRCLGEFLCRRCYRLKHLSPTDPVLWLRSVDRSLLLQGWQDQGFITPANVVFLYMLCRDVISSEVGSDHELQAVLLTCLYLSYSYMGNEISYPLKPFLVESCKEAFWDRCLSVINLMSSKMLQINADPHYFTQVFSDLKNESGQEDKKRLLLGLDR
# procedure-summary: Inhibition of mammalian CDK5/p25
pIC50: −log10 of the molar value.
quantity-measured: pIC50

response.value for Cn1c(O)c(-c2[nH]c3ccccc3c2N=O)c2cccc(I)c21 (field: pIC50) = < 4.00

For record Cl.Oc1[nH]c2c(Br)cccc2c1C1=Nc2ccccc2/C1=N\OCCN1CCCC1 the listed pIC50 is < 5.00

Please fill in: pIC50 reported for CO/N=C1/C(c2c(O)n(C)c3c(I)cccc23)=Nc2ccccc21 = < 4.00

Sure, the documented pIC50 for Cn1c(O)c(C2=Nc3ccccc3/C2=N\OCCn2ccnc2)c2cccc(Br)c21 is < 5.00

Reported pIC50 for Cl.Cn1c(O)c(C2=Nc3ccccc3/C2=N\OCCN2CCOCC2)c2cccc(Br)c21 was < 5.00

Lookup result for CC(=O)O/N=C1\C(c2c(O)[nH]c3ccccc23)=Nc2ccccc21 ; measured pIC50: 6.15

pIC50 recorded for this molecule, Cn1c(O)c(-c2[nH]c3ccccc3c2N=O)c2cccc(Br)c21 , is < 4.00

molecule CO/N=C1/C(c2c(O)n(C)c3c(F)cccc23)=Nc2ccccc21 , pIC50 observed: < 4.00

Consider CN(C)CCO/N=C1/C(c2c(O)n(C)c3c(Br)cccc23)=Nc2ccccc21.Cl . Its measured pIC50 is < 5.00

For this molecule ( Cn1c(O)c(C2=Nc3ccccc3/C2=N\OCCBr)c2cccc(Br)c21 ), measured pIC50 is < 5.00

====

Task for the reader: assign each of the following molecules its reported IC50.
# target: Cyclin-dependent kinase 5/CDK5 activator 1 (Homo sapiens)
# procedure-summary: Inhibition of mammalian CDK5/p25
# Assay type: protein-complex assay

IC50 in this record for Cn1c(O)c(C2=Nc3ccccc3C2=O)c2cccc(Br)c21 : > 100 µM

The molecule CC(=O)O/N=C1/C(c2c(O)[nH]c3c(F)cccc23)=Nc2ccccc21 showed IC50 equal to > 100 µM

Given item CC(=O)O/N=C1/C(c2c(O)[nH]c3c(I)cccc23)=Nc2ccccc21 , the value recorded as its IC50 is > 100 µM

The molecule listed as Cn1c(O)c(C2=Nc3ccccc3C2=O)c2cccc(Cl)c21 has a reported IC50 of > 100 µM

Reported IC50 ( O=C1Nc2ccc(Br)cc2/C1=C1/Nc2ccccc2/C1=N\O ) = 0.028 µM

Please fill in: IC50 reported for O=C1C(c2c(O)[nH]c3c(Br)cccc23)=Nc2ccccc21 = > 100 µM

Per the records, this molecule ( Cn1c(O)c(C2=Nc3ccccc3C2=O)c2cccc(I)c21 ) has IC50 equal to > 100 µM

The value of IC50 measured for the molecule Cn1c(O)c(-c2[nH]c3ccccc3c2N=O)c2cccc(Cl)c21 turned out to be > 100 µM

Documented IC50 of CO/N=C1/C(c2c(O)[nH]c3c(Br)cccc23)=Nc2ccccc21 : > 100 µM

The recorded IC50 for O=C1C(c2c(O)[nH]c3c(Cl)cccc23)=Nc2ccccc21 is > 100 µM

Sure, the documented IC50 for O=Nc1c(-c2c(O)[nH]c3c(Cl)cccc23)[nH]c2ccccc12 is 6 µM

Lab note: measured IC50 of CO/N=C1/C(c2c(O)[nH]c3c(Cl)cccc23)=Nc2ccccc21 was > 100 µM

Documented IC50 of Cl.Cl.Oc1[nH]c2c(Br)cccc2c1C1=Nc2ccccc2/C1=N\OCCN1CCNCC1 : > 10 µM

Lookup result for Cn1c(O)c(C2=Nc3ccccc3C2=O)c2cccc(F)c21 ; measured IC50: > 100 µM

Sample Oc1[nH]c2c(Br)cccc2c1C1=Nc2ccccc2/C1=N\OCCBr ; IC50 observed: 25 µM

Measured IC50 of CCN(CC)C(=O)O/N=C1/C(c2c(O)[nH]c3c(Br)cccc23)=Nc2ccccc21 : > 100 µM

The molecule listed as CC(=O)O/N=C1/C(c2c(O)n(C)c3c(Br)cccc23)=Nc2ccccc21 has a reported IC50 of > 100 µM

Lab book: IC50 of CO/N=C1\C(c2c(O)[nH]c3ccccc23)=Nc2ccccc21 noted as 0.4 µM

Notebook: CCN(CC)CCO/N=C1/C(c2c(O)n(C)c3c(Br)cccc23)=Nc2ccccc21.Cl , IC50 read as > 10 µM

The molecule identified as CO/N=C1/C(c2c(O)[nH]c3c(F)cccc23)=Nc2ccccc21 registered its IC50 at > 100 µM

GET /value?item= CN(C)CCO/N=C1/C(c2c(O)[nH]c3c(Br)cccc23)=Nc2ccccc21.Cl &field=IC50 returns > 10 µM

Documented IC50 of CC(=O)O/N=C1/C(c2c(O)[nH]c3c(Br)cccc23)=Nc2ccccc21 : > 100 µM

Form field IC50, entry CC(=O)O/N=C1/C(c2c(O)n(C)c3c(I)cccc23)=Nc2ccccc21 : > 100 µM

Reported IC50 ( O=C1C(c2c(O)[nH]c3c(I)cccc23)=Nc2ccccc21 ) = > 100 µM

Given item Cl.Cn1c(O)c(C2=Nc3ccccc3/C2=N\OCCN2CCCC2)c2cccc(Br)c21 , the value recorded as its IC50 is > 10 µM

IC50 reported for this molecule CO/N=C1/C(c2c(O)[nH]c3c(I)cccc23)=Nc2ccccc21 : > 100 µM

Input CC(=O)O/N=C1/C(c2c(O)[nH]c3c(Cl)cccc23)=Nc2ccccc21 . Output IC50: > 100 µM

// CC(=O)O/N=C1/C(c2c(O)n(C)c3c(F)cccc23)=Nc2ccccc21 : IC50 value = > 100 µM

Per the record, Cn1c(O)c(-c2[nH]c3ccccc3c2N=O)c2cccc(F)c21 has IC50 of > 100 µM

Just so you know, measured IC50 for CCN(CC)C(=O)O/N=C1/C(c2c(O)n(C)c3c(Br)cccc23)=Nc2ccccc21 came out at > 10 µM

molecule O=Nc1c(-c2c(O)[nH]c3c(F)cccc23)[nH]c2ccccc12 , IC50 observed: 0.51 µM

response.value for O=C1C(c2c(O)[nH]c3c(F)cccc23)=Nc2ccccc21 (field: IC50) = ≥ 10 µM

Data provenance: ChEMBL document CHEMBL1137414
